This collection of values is drawn from PubChem BioAssay.

Test Target: Homeobox protein Hox-A13 (Mus musculus) (UniProt Q62424)
Sequence (Q62424 whole entry, looked up): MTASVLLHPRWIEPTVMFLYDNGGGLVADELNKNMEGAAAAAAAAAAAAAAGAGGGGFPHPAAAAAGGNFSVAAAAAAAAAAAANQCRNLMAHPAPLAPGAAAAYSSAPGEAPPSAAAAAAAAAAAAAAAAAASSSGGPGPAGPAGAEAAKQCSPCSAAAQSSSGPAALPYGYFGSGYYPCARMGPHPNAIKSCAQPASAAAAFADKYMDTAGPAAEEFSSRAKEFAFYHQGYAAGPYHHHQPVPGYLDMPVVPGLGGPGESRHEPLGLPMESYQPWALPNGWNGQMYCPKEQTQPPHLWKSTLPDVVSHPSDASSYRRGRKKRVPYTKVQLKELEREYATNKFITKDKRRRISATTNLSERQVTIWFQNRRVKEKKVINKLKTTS
Protocol: inhibitors of HoxA13-DNA binding, primary screen, biochemical, fluorescence polarization, labeled oligonucleotide (AID 1185)
Test Context: 15 min, higher = more signal, called active from +8 up or from −8 down
Each entry gets not satisfied if its z-score stays under -3, and satisfied if its z-score is -3 or above.

| Molecule | Test Target | Cat |
| --- | --- | --- |
| CC(C)C(CO)N1C(=O)[C@@H]2C3C(=O)OCCC/C=C\[C@H]3OC23C=CCN(CCN2CCOCC2)C(=O)[C@@H]13 (stereo not given in full) | Homeobox protein Hox-A13 (Mus musculus) (UniProt Q62424) | not satisfied |
| COC(=O)[C@@]1(Cc2ccc(F)cc2)[C@H]2c3cc(C(=O)N(C)C)n(Cc4ccc(Cl)c(C(F)(F)F)c4)c3C[C@H]2CN1C(=O)c1ccccc1 | Homeobox protein Hox-A13 (Mus musculus) (UniProt Q62424) | satisfied |
| [N-]=[N+]=Nc1ccccc1[C@@H]1OC(c2ccc(OCCCO)cc2)=N[C@]1(Cc1ccccc1)C(=O)N1CCOCC1 | Homeobox protein Hox-A13 (Mus musculus) (UniProt Q62424) | not satisfied |
| COCCOC(=O)N1C(=O)[C@@]2(c3cc(C#Cc4ccc(OC)cc4)ccc31)[C@H](c1ccc(OCCO)cc1)N1[C@H](c3ccccc3)[C@H](c3ccccc3)OC(=O)[C@H]1[C@@H]2C(=O)N1CCN(c2ncccn2)CC1 | Homeobox protein Hox-A13 (Mus musculus) (UniProt Q62424) | satisfied |
| COc1cc(Br)cc(C(O)C2C=CC3C(=O)N(C)C(=O)C3N2N2CCCCC2)c1OC (stereo not given) | Homeobox protein Hox-A13 (Mus musculus) (UniProt Q62424) | satisfied |
| O=C1C[C@@](C(=O)NC2CC2)(c2ccc([N+](=O)[O-])cc2)[C@@H](c2ccc(CO)cc2I)N1C1CCCCC1 | Homeobox protein Hox-A13 (Mus musculus) (UniProt Q62424) | not satisfied |
| CC1(C)[C@@H]2CC(C(O)C3C=CC4C(=O)N(Cc5ccccc5)C(=O)C4N3n3cnnc3)=C[C@H]1C2 (stereo not given in full) | Homeobox protein Hox-A13 (Mus musculus) (UniProt Q62424) | not satisfied |
| CC1CC/C=C\[C@H]2OC34C=CCN(C(C)(C)C)C(=O)[C@H]3N(CCO)C(=O)[C@@H]4C2C(=O)O1 (stereo not given in full) | Homeobox protein Hox-A13 (Mus musculus) (UniProt Q62424) | not satisfied |
| CCCC[C@@H]1C[C@H]1[C@@H](NC(=O)c1ccco1)c1ccc(-c2ccccc2)cc1 | Homeobox protein Hox-A13 (Mus musculus) (UniProt Q62424) | satisfied |
| C=C[C@@H](COC(=O)OC(C)(C)C)N(Cc1ccc(OC)cc1)S(=O)(=O)c1ccc(Br)cc1 | Homeobox protein Hox-A13 (Mus musculus) (UniProt Q62424) | satisfied |
| C=CC[C@]1(C(=O)NCCCOC)N=C(c2ccc(OCCCO)cc2)O[C@H]1c1ccccc1CN=[N+]=[N-] | Homeobox protein Hox-A13 (Mus musculus) (UniProt Q62424) | not satisfied |
| O=C1N(Cc2ccccc2)c2ccccc2[C@@H]2OC(c3ccc(OCCCO)cc3)=N[C@]12CCS(=O)(=O)c1ccccc1 | Homeobox protein Hox-A13 (Mus musculus) (UniProt Q62424) | satisfied |
| CN1C(=O)C2C=CC(C(O)C3CC=CCC3)N(N(c3ccccc3)c3ccccc3)C2C1=O (stereo not given) | Homeobox protein Hox-A13 (Mus musculus) (UniProt Q62424) | satisfied |
| [N-]=[N+]=Nc1ccccc1[C@@H]1OC(c2ccc(OCCCO)cc2)=N[C@]1(CCS(=O)(=O)c1ccccc1)C(N)=O | Homeobox protein Hox-A13 (Mus musculus) (UniProt Q62424) | not satisfied |
| CCOC(=O)C[C@H]1[C@H](OC(=O)c2ccc(C(=O)c3ccccc3)cc2)[C@@H](NC(=O)c2ccccc2)c2cc(OCCCO)ccc2N1C(=O)Cc1ccc(OC)cc1 | Homeobox protein Hox-A13 (Mus musculus) (UniProt Q62424) | satisfied |
| COc1ccc([Si](C)(C)[C@H]2[C@H](CCO)O[C@@]3(C(=O)N(Cc4ccc(N(C=O)c5ccccc5)cc4)c4ccccc43)[C@@H]2C)cc1 | Homeobox protein Hox-A13 (Mus musculus) (UniProt Q62424) | satisfied |
| COC(=O)[C@@]1(Cc2ccccc2)N=C(c2ccc(OCCCO)cc2)O[C@H]1c1ccccc1 | Homeobox protein Hox-A13 (Mus musculus) (UniProt Q62424) | not satisfied |
| CCCC=C(CCC)[C@@H](NC(=O)c1cccs1)c1ccc(C(F)(F)F)cc1 | Homeobox protein Hox-A13 (Mus musculus) (UniProt Q62424) | satisfied |
| NC(=O)[C@@H]1[C@H]2C(=O)O[C@H](c3ccccc3)[C@H](c3ccccc3)N2[C@H](c2ccc(O)cc2)[C@@]12C(=O)Nc1ccccc12 | Homeobox protein Hox-A13 (Mus musculus) (UniProt Q62424) | not satisfied |
| COCCCNC(=O)[C@]1(CCC(=O)OC(C)(C)C)N=C(c2ccc(OCCCO)cc2)O[C@@H]1c1ccccc1CN=[N+]=[N-] | Homeobox protein Hox-A13 (Mus musculus) (UniProt Q62424) | not satisfied |
| CN1C(=O)C2C=CC(C(O)C#Cc3ccccc3)N(N3CCCCC3)C2C1=O (stereo not given) | Homeobox protein Hox-A13 (Mus musculus) (UniProt Q62424) | not satisfied |
| C=CC[C@]1(C(=O)NCc2ccccc2)N=C(c2ccc(OCCCO)cc2)O[C@H]1c1ccccc1N=[N+]=[N-] | Homeobox protein Hox-A13 (Mus musculus) (UniProt Q62424) | satisfied |

###

Protocol: binders of probe aFGF10 on microarray, primary screen, stem cell growth factor project, biochemical, small-molecule microarray, fluorescence 635/667 (AID 1071);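 note: score merges 667 nm spot intensity and signal to noise from triplicate slides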
Test Context: higher = more signal
Reported values of composite z-score for individual entries

| Compound | composite z-score |
| --- | --- |
| CC(C)=CCN[C@H](CO)c1ccccc1 | 0.897 |
| C=C(CCCC)/C(=C/C[C@H](OC(C)=O)c1ccccc1OCCO)c1cc(C(=O)OC)ccc1OC | 0.339 |
| C=C[C@H](OC)[C@@H](OC(=O)Nc1ccc(OC)cc1)c1ccc(O)c(F)c1 | -0.827 |
| COc1ccc(C#Cc2ccc3c(c2)[C@]2(C(=O)N3)[C@H](c3ccccc3OCCO)N3[C@H](c4ccccc4)[C@H](c4ccccc4)OC(=O)[C@H]3[C@@H]2C(=O)Nc2nc3ccccc3s2)cc1 | 0.615 |
| O=C(c1ccccc1)N1C(=O)[C@@]2(Cc3ccccc31)N=C(c1ccc(OCCCO)cc1)O[C@H]2c1ccccc1 | 0.663 |
| COC(=O)[C@@]1(Cc2ccc(F)cc2)[C@H]2c3cc(C(=O)N4CCCC4)n(Cc4ccc(S(C)(=O)=O)cc4)c3C[C@H]2CN1C(=O)c1ccccc1 | 0.983 |
| NC(=O)NCC#Cc1ccc2c(c1)[C@]1(C(=O)N2)[C@H](C(=O)Nc2nc3ccccc3s2)[C@H]2C(=O)O[C@H](c3ccccc3)[C@H](c3ccccc3)N2[C@@H]1c1ccccc1OCCO | 1.01 |
| COc1ccc(C#Cc2ccc3c(c2)[C@]2(C(=O)N3)[C@H](C(=O)Nc3nc4ccccc4s3)[C@H]3C(=O)O[C@H](c4ccccc4)[C@H](c4ccccc4)N3[C@@H]2c2ccc(O)cc2)cc1 | 1.13 |
| COc1cc2c(cc1O)C(c1cccs1)N(C)CC2 (stereo not given) | -0.143 |
| Cc1ccc([C@@H]2C[C@@H](Sc3ccccc3)[C@H](C(=O)O)CN2S(=O)(=O)c2ccc(C)cc2)cc1 | 0.983 |

###

Test Target: Pro-neuregulin-1, membrane-bound isoform (Homo sapiens) (UniProt Q02297)
Sequence (Q02297 whole entry, looked up, canonical isoform): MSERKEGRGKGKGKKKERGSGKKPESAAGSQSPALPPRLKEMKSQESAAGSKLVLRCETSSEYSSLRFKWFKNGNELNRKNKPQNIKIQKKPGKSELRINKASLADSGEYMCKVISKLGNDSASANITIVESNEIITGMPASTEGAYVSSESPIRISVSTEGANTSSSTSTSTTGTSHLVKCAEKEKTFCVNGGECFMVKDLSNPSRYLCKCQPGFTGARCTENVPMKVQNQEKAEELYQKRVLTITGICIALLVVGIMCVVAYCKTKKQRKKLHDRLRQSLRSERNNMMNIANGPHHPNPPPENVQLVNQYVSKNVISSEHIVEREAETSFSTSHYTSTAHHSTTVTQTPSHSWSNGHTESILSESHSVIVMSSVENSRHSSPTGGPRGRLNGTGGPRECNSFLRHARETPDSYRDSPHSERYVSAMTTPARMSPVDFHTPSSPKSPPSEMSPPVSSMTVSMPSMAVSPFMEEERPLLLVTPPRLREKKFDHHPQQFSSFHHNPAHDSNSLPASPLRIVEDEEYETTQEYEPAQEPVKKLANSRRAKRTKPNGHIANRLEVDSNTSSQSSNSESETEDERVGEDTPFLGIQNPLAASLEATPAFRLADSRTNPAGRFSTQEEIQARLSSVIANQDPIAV
Protocol: NRG1 binders on small-molecule microarrays, primary screen, psychiatric disease protein project, biochemical, small-molecule microarray, fluorescence 635/667 (AID 1075);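 note: score combines 667 nm spot fluorescence with signal to noise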
Test Context: NRG1 binding, 635 nm fluorescence, higher = more signal

| Compound | composite z-score |
| --- | --- |
| COc1cc(Br)cc(C(O)C2C=CC3C(=O)N(C)C(=O)C3N2N2CCCCC2)c1OC (stereo not given) | 0.818 |
| COc1ccc([C@H]2OC[C@@H]3C[C@@H](Cc4ccccc4)C(=O)N32)cc1 | -0.103 |
| CO[C@H]1O[C@H](CO)[C@@H](OC(=O)Nc2cccc(F)c2)[C@H](OC(=O)Nc2ccccc2)[C@@H]1OC(=O)Nc1ccccc1 | 1.51 |
| CC(C)C(O)C1C=CC2C(=O)NC(=O)C2N1Nc1ccc(Cl)cc1Cl (stereo not given) | 1.98 |
| C=C(/C(=C/C[C@H](OC(C)=O)c1ccccc1OCCO)c1cnc2ccccc2c1)C(C)C | 0.586 |
| CN1C(=O)C2C=CC(C(O)C3CC=CCC3)N(N(c3ccccc3)c3ccccc3)C2C1=O (stereo not given) | -0.282 |
| O=C1[C@@]23C=C(Br)[C@H](C[C@@H]2CCOC3)[C@@]12CO2 | -0.213 |
| Cc1nc2cc(Br)ccc2c(=O)o1 | 0.226 |
| COc1cc(COC(C)=O)ccc1OC(C)=O | 0.14 |
| C=C(C(=O)CC[C@@H](OC(=O)c1cccnc1)c1ccccc1OCCO)C(C)C | 0.21 |
| C=C(COC)C(=O)CC[C@@H](OC(C)=O)c1ccc(CO)o1 | -0.0949 |
| C=CCC(OC(C)=O)[C@@H]1[C@@H](N(Cc2ccc(-c3ccccc3)cc2)C(=O)Cc2ccc(OC)cc2)c2cc(OCCCO)ccc2N1C(=O)Cc1ccc2ccccc2c1 (stereo not given in full) | -0.32 |
| C=CCC(OC(C)=O)[C@@H]1[C@@H](N(Cc2cc3ccccc3o2)C(=O)c2cccc3ccccc23)c2cc(OCCCO)ccc2N1C(=O)c1ccc(-c2ccccc2)cc1 (stereo not given in full) | 0.142 |
| COc1ccc(CCNC(=O)[C@@H]2c3ccccc3C(=O)N(Cc3ccccc3Cl)[C@H]2c2ccc(CO)cc2)cc1 | 0.8 |
| COCCOC(=O)N1C(=O)[C@@]2(c3cc(C#CCC(C(=O)OC)C(=O)OC)ccc31)[C@H](C(=O)Nc1nc3ccccc3s1)[C@H]1C(=O)O[C@H](c3ccccc3)[C@H](c3ccccc3)N1[C@@H]2c1ccccc1OCCO | 1.48 |
| Cc1ccc(S[C@]2(C(=O)NCCCN(C)C)CC(=O)N(Cc3cc(C(F)(F)F)cc(C(F)(F)F)c3)[C@@H]2c2ccc(CO)cc2)cc1 | 0.494 |
| COC(=O)[C@@]1(CCS(=O)(=O)c2ccccc2)N=C(c2ccc(OCCCO)cc2)O[C@H]1c1ccccc1CN=[N+]=[N-] | 0.975 |
| COc1cc2c(cc1OC)CN(C(=O)[C@H]1[C@@H]3C(=O)O[C@@H](c4ccccc4)[C@@H](c4ccccc4)N3[C@@H](c3ccc(O)cc3)[C@]13C(=O)Nc1ccc(C#CCCO)cc13)CC2 | 1.63 |
| C=C(CCCC)/C(=C/C[C@@H](OC(=O)c1ccncc1)c1ccc(OCCO)cc1)c1cc(C(=O)OC)ccc1OC | 0.382 |
| C=CCC(OC(C)=O)[C@@H]1[C@@H](N(Cc2ccc(-c3cccc(C(F)(F)F)c3)o2)C(=O)c2ccc(C)cc2)c2cc(OCCCO)ccc2N1C(=O)Cc1ccc2ccccc2c1 (stereo not given in full) | -0.326 |
